Molecular target: HSP90a protein (Homo sapiens)
Construct: purchased BPS Bioscience 50298
Assay: HSP90α-binding fluorescent polarization (FP) assay, BODIPY-labeled RNK04010 probe
Settings: FP competition with RNK04010 (BODIPY-labeled), 5 nM, 300 min at 25° C.
pIC50: −log10 of the molar value.
MEASURED_ATTRIBUTE: pIC50

CC(=O)N1CCN(c2nc(NCCC(=O)N3CCC(Cc4ccc(CN(C)Cc5ccc(-n6c(C(=O)NCC(F)(F)F)nnc6-c6cc(C)c(O)cc6O)cc5)cc4)CC3)nc3c2CCN(c2cc(O)cc4ccccc24)C3)CC1; < 6.00

Problem: # query: pIC50 of entry "C=CC(=O)N1CCN(c2nc(NCCC(=O)N3CCC(Cc4ccc(-n5c(O)nnc5-c5cc(C(C)C)c(O)cc5O)cc4)CC3)nc3c2CCN(c2cc(O)cc4ccccc24)C3)CC1"
Result: 6.00 to 7.00

* * *

Molecular target: HSP90a protein (Homo sapiens, UniProt P07900)
Construct: purchased BPS Bioscience 50298
Experiment: HSP90α-binding fluorescent polarization (FP) assay, BODIPY-labeled RNK04010 probe
Conditions: FP competition with RNK04010 (BODIPY-labeled), 5 nM, 300 min at 25° C.
Protocol: HSP90α-Binding Fluorescent Polarization (FP) Assay Binding of test compounds to HSP90a protein was measured by fluorescent polarization (FP) using the HSP90a (N-terminal) Assay Kit (BPS Bioscience, #50298), following the manufacturer's instructions, except as noted. […]
MEASURED_ATTRIBUTE: IC50

Solved entries:
C=CC(=O)N1CCN(c2nc(OC[C@@H]3CCN(CCCOCCC(=O)NCc4ccc(-n5c(O)nnc5-c5cc(C(C)C)c(O)cc5O)cc4)C3)nc3c2CCN(c2cccc4cccc(Cl)c24)C3)C[C@@H]1CC#N; < 100 nM
C=CC(=O)N1CCN(c2nc(NCCC(=O)NCc3ccc(-n4c(O)nnc4-c4cc(C(C)C)c(O)cc4O)cc3F)nc3c2CCN(c2cccc4cccc(Cl)c24)C3)C[C@H]1CC#N; 100 to 1000 nM

Please examine the following record next.
Problem: # query: IC50 of entry "CCC(=O)N1CCN(c2nc(NCCC(=O)NCc3ccc(-n4c(O)nnc4-c4cc(CC)c(O)cc4O)cc3)nc3c2CCN(c2cc(O)cc4ccccc24)C3)CC1"
Result: 100 to 1000 nM

* * *

System: NCI-H358 human non-small cell lung cancer
Assay: NCI-H358 CCK-8 proliferation assay
Assay type: cell-based
Conditions: NCI-H358 cells, 72 hr
pEC50: −log10 of the molar value.
MEASURED_ATTRIBUTE: pEC50

Solved entries:
CCc1cc(-c2nnc(O)n2-c2ccc(CN3CCN(CC4CCN(c5nc6c(c(N7CCN(C(=O)C(F)(F)F)[C@@H](CC#N)C7)n5)CCN(c5cccc7cccc(Cl)c57)C6)CC4)CC3)cc2)c(O)cc1O; < 6.00
C=CC(=O)N1CCN(c2nc(NCCC(=O)NCc3ccc(-n4c(O)nnc4-c4cc(CC)c(O)cc4O)cc3F)nc3c2CCN(c2cc(O)cc4ccccc24)C3)CC1; < 6.00

List the reported pEC50 of each compound below.
1. CCc1cc(-c2nnc(O)n2-c2ccc(CNC(=O)CCNc3nc4c(c(N5CCN(C(C)=O)CC5)n3)CCN(c3cc(O)cc5ccccc35)C4)c(F)c2)c(O)cc1O
2. C=CC(=O)N1CCN(c2nc(NCCC(=O)NCC3CCC(C(=O)N4CCN(Cc5ccc(-n6c(O)nnc6-c6cc(CC)c(O)cc6O)cc5)CC4)CC3)nc3c2CCN(c2cc(O)cc4ccccc24)C3)CC1 (stereo not drawn)
3. C=CC(=O)N1CCN(c2nc(NCCC(=O)N3CCC(CN4CCN(Cc5ccc(-n6c(C(=O)NCC(F)(F)F)nnc6-c6cc(C)c(O)cc6O)cc5)CC4)CC3)nc3c2CCN(c2cccc4cccc(Cl)c24)C3)C[C@H]1CC#N

Result:
1. < 6.00
2. 6.00 to 7.00
3. 6.00 to 7.00

List the reported pEC50 of each compound below.
1. C=CC(=O)N1CCN(c2nc(NCCC(=O)N3CCC(CN4CCN(Cc5ccc(-n6c(O)nnc6-c6cc(CC)c(O)cc6O)cc5F)CC4)CC3)nc3c2CCN(c2cc(O)cc4ccccc24)C3)CC1
2. C=CC(=O)N1CCN(c2nc(NCCC(=O)NCCOc3ccc(-n4c(O)nnc4-c4cc(C(C)C)c(O)cc4O)cc3)nc3c2CCN(c2cc(O)cc4ccccc24)C3)CC1
3. C=CC(=O)N1CCN(c2nc(NCCC(=O)N3CCN(c4ccc(-n5c(O)nnc5-c5cc(C(C)C)c(O)cc5O)cc4)CC3)nc3c2CCN(c2cccc4cccc(Cl)c24)C3)C[C@H]1CC#N
4. CCC(=O)N1CCN(c2nc(NCCC(=O)N3CCN(Cc4ccc5c(c4)CN(C(=O)c4cc(CC)c(O)cc4O)C5)CC3)nc3c2CCN(c2cc(O)cc4ccccc24)C3)CC1

Result:
["6.00 to 7.00", "< 6.00", "< 6.00", "< 6.00"]
